Where do these numbers come from? They come from a melting point compilation (Tetko et al.; mined from patent text by program, amines drawn as free bases though some values may be those of a salt).

Would you kindly list melting point for each of these compounds?

Indicate its recorded melting point; the compound in question is COC(=O)CCCC#Cc1cc(Cl)ccc1NS(=O)(=O)c1cn(C)cn1 76 to 79 °C

Indicate its recorded melting point; the compound in question is COc1ccc(CCN(O)C(=O)C(N)=O)cc1OC 143 to 144 °C

Indicate its recorded melting point; the compound in question is COCCCNc1nc(Cl)cc(Cl)n1 48 °C

Indicate its recorded melting point; the compound in question is NC(=O)C(c1ccc([N+](=O)[O-])cc1)c1ccccn1 (racemic) 155 to 156 °C

Indicate its recorded melting point; the compound in question is O=c1nc(NO)ccn1C1OC(CO)C(O)C1O (stereo unspecified) 173 to 176 °C

Indicate its recorded melting point; the compound in question is CC(=O)NC1(c2ccccc2Cl)CCC=CC1=O (stereo unspecified) 144 to 145 °C

Indicate its recorded melting point; the compound in question is Fc1ccc(Cn2c(NC3CCN(CCOc4nccs4)CC3)nc3ccccc32)cc1 156 °C

Indicate its recorded melting point; the compound in question is Cc1nc(C)c(Cl)c(NCc2cccc(Oc3ccc4ncc([N+](=O)[O-])n4n3)c2)n1 222 to 223 °C

Indicate its recorded melting point; the compound in question is CC(=O)Nc1ccc(OCC(O)CNC(C)(C)C)c(-c2nnco2)c1 (stereo unspecified) 157 to 160 °C

Indicate its recorded melting point; the compound in question is CCCn1c(-c2ccccc2)cc(=O)c(C(=O)O)c1-c1ccccc1 166 to 167 °C

Indicate its recorded melting point; the compound in question is O=C1NCCN(N=Cc2ccccc2)C1=O 231 to 234 °C

Indicate its recorded melting point; the compound in question is Cc1c(C(=O)N(C)c2ccc(N3CCC(O)CC3)c(C#N)c2)cnn1-c1ccc(F)cc1 211 to 212 °C

Indicate its recorded melting point; the compound in question is COC(=O)C1CC(=O)C(CC(=O)O)C1C[N+](=O)[O-] (single isomer, unassigned; (-)) 111 to 112 °C

Indicate its recorded melting point; the compound in question is COc1cc2c(cc1Nc1ncc(Cl)c(Nc3ccc(N4CCOCC4)cc3OC)n1)CCN(CC(=O)OC(C)C)CC2 70 to 80 °C

Indicate its recorded melting point; the compound in question is CCOC(=O)c1ccc2nc3cscc3c(=O)n2c1 175 °C

Indicate its recorded melting point; the compound in question is CC1(C)C(=O)Nc2cc3[nH]c(-c4cnsn4)nc3cc21 > 300 °C

Indicate its recorded melting point; the compound in question is O=C1C=CC(=O)N1c1cccc(I)c1 154 to 155 °C

Indicate its recorded melting point; the compound in question is COc1ccc(CN(C)CCCOc2ccc(NC(=O)c3cccc4c(=O)c5ccccc5[nH]c34)cc2)cc1OC 130 °C

Indicate its recorded melting point; the compound in question is ClCCCOc1ccc(SCCCCl)cc1 112 °C

Indicate its recorded melting point; the compound in question is CCN1CCN=C1c1ccccc1C(=O)c1ccc(Cl)cc1 132 to 134 °C

Indicate its recorded melting point; the compound in question is c1ccc(C(OC2CCN(CCCOc3ccc(-c4nnn[nH]4)cc3)CC2)c2ccccc2)cc1 167 to 171 °C

----------
Would you kindly list melting point for each of these molecules?

Indicate its recorded melting point; the molecule in question is CC(Cc1ccc(Oc2cc(N3CCN(Cc4ccccc4)CC3)ncn2)cc1)(Oc1ccccc1)C(=O)O (centres undefined) 107 to 109 °C

Indicate its recorded melting point; the molecule in question is CS(=O)(=O)c1ccc(-c2oc(CCCC(=O)O)nc2-c2ccc(F)cc2)cc1 140 to 141 °C

Indicate its recorded melting point; the molecule in question is COC(=O)C(Cl)Cc1ccc(O)cc1 (centres undefined) 57 to 59 °C

Indicate its recorded melting point; the molecule in question is Cn1c(=O)c2c(nc(Cl)n2Cc2ccccc2Br)n(C)c1=O 165 to 167 °C

Indicate its recorded melting point; the molecule in question is CON=C(Cl)c1ccccc1S(=O)(=O)NC(=O)Nc1nc(C)cc(OC)n1 178 to 179 °C

Indicate its recorded melting point; the molecule in question is CCn1ncc2c3noc(-c4ccc(OC)cc4)c3cnc21 215 to 216 °C

Indicate its recorded melting point; the molecule in question is N#Cc1cc(C=NO)ccc1-n1cncn1 198 to 200 °C

Indicate its recorded melting point; the molecule in question is COCCOc1ccc(/C=C/COC(=O)NS(=O)(=O)NCCOC(C)C)c(Oc2ncc(C(F)(F)F)cc2Cl)c1 127 to 128 °C

Indicate its recorded melting point; the molecule in question is O=C(NCCF)c1ccc(CCN2CC=C(c3c[nH]c(-c4ccc(F)cc4)c3-c3ccncc3)CC2)cc1 209 to 211 °C

Indicate its recorded melting point; the molecule in question is O=C(NCCCCCCCCCNC(=O)c1ccc(OC(F)(F)F)cc1)c1ccc(OC(F)(F)F)cc1 144 to 145 °C

Indicate its recorded melting point; the molecule in question is CCC(C)n1c(Nc2cc(C(F)(F)F)ccc2C(F)(F)F)nc(C(F)(F)F)c(Cl)c1=O (centres undefined) 133 to 135 °C

Indicate its recorded melting point; the molecule in question is COC(=O)c1cc2ccsc2s1 101 to 105 °C

Indicate its recorded melting point; the molecule in question is Nc1ccc(C(=O)c2cccc3c2NCC3)cc1 133 to 135 °C

Indicate its recorded melting point; the molecule in question is CN1c2ccc(C#CCO)cc2C(O)=C(C(=O)NCc2ccc(Cl)cc2)S1(=O)=O 167 to 168 °C

Indicate its recorded melting point; the molecule in question is CCCOc1ccc(C(=O)O)c(OCc2ccc(OCCc3nc(-c4ccccc4)oc3C)cc2)c1 108 to 109 °C

Indicate its recorded melting point; the molecule in question is O=C(NN1CCCCC1)c1nn(-c2ccc(Cl)cc2Cl)c2c1CCc1sc(Br)cc1-2 145 °C

Indicate its recorded melting point; the molecule in question is O=C(O)CCCCCCc1ccccc1CO 75 to 77 °C

Indicate its recorded melting point; the molecule in question is CCc1ccc2c(c1)C=Cc1cc(C)ccc1C2c1cn(Cc2ccc(C(=O)O)o2)c(=O)[nH]c1=S (centres undefined) 165 °C

Indicate its recorded melting point; the molecule in question is Cc1cn(-c2ccc3c(c2)c2ccccc2n3-c2ccccc2)c(-c2nc(C)cn2-c2ccc3c(c2)c2ccccc2n3-c2ccccc2)n1 245 to 253 °C
